Target: Calcium/calmodulin-dependent protein kinase type II subunit delta (Homo sapiens); also: in the data inactive means no Kd found up to 30 µM
Sequence (Q13557 whole entry): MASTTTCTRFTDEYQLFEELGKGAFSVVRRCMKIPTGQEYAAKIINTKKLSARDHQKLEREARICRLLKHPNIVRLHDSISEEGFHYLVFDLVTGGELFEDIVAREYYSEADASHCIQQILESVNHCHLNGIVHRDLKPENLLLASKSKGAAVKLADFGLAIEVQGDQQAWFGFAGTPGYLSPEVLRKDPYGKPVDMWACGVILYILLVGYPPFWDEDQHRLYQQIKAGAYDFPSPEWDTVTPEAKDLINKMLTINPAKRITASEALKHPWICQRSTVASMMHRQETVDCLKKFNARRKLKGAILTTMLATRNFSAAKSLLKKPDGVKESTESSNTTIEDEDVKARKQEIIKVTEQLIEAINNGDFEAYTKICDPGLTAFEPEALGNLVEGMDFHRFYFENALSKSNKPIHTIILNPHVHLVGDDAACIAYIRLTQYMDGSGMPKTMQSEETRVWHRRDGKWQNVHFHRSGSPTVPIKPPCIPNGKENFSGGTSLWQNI
Activity calls are given as the source filed them.
Result category, one only: active, inactive

Check out these entries, answers already filled in.
{"smiles.data": "S=C(NCc1ccc2c(c1)OCO2)N1CCN(c2ncnc3c2oc2ccccc23)CC1", "assigned.category": "inactive"}
{"smiles.data": "COc1cccc(Nc2ncnn3ccc(CN4CC[C@@H](N)[C@H](O)C4)c23)c1", "assigned.category": "active"}
{"smiles.data": "O=C(O)c1ccc2c(c1)nc(Nc1cccc(Cl)c1)c1ccncc12", "assigned.category": "inactive"}

q: Kindly provide the recorded test outcome for the following compound: `Cn1cc(-c2[nH]c3cc(NC(=O)[C@H](N)C4CCCCC4)cc4c3c2C=NNC4=O)cn1`
a: inactive

---

Target: Cyclin-dependent kinase 10 (Homo sapiens); also: in the data inactive means no Kd found up to 30 µM
Sequence (Q15131 whole entry): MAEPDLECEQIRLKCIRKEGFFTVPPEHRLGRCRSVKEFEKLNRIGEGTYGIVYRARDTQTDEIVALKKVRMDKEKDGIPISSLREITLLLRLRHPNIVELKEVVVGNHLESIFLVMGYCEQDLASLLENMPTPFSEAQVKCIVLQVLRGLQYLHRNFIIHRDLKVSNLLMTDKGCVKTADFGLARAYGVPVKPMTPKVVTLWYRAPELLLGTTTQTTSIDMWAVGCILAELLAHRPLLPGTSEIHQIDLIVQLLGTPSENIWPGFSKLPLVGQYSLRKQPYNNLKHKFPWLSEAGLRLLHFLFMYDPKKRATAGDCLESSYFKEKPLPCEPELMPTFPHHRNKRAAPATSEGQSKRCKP
Calls of active or inactive are those of the source.
recorded.endpoint: Kd

Sample answers from the record:
{"molecule": "CC1(COc2ccc3c(c2)ncn3-c2ccc3cccc(N4CCC(N)CC4)c3n2)COC1 [CRENOLANIB]", "target.or.test.system": "Cyclin-dependent kinase 10 (Homo sapiens)", "Kd": "> 30 µM (inactive)"}
{"molecule": "Cc1ccc(C(=O)Nc2ccc(Oc3cc4cnn(C)c4cc3-c3cn[nH]c3)c(F)c2)c(=O)n1-c1ccc(F)cc1 [MERESTINIB]", "target.or.test.system": "Cyclin-dependent kinase 10 (Homo sapiens)", "Kd": "> 30 µM (inactive)"}
{"molecule": "C[C@]1(O)C[C@@H](c2nc(-c3ccc4ccc(-c5ccccc5)nc4c3)c3c(N)nccn32)C1 [LINSITINIB]", "target.or.test.system": "Cyclin-dependent kinase 10 (Homo sapiens)", "Kd": "> 30 µM (inactive)"}
{"molecule": "O=C(NC[C@H](O)CO)c1ccncc1Nc1ccc(I)cc1F [PIMASERTIB]", "target.or.test.system": "Cyclin-dependent kinase 10 (Homo sapiens)", "Kd": "> 30 µM (inactive)"}
{"molecule": "Cc1cc(Nc2nc(N[C@@H](C)c3ncc(F)cn3)ncc2Cl)n[nH]1 [AZD-1480]", "target.or.test.system": "Cyclin-dependent kinase 10 (Homo sapiens)", "Kd": "> 30 µM (inactive)"}

q: Report Kd from Cyclin-dependent kinase 10 (Homo sapiens) testing of `Cn1cc(-c2[nH]c3cc(NC(=O)[C@H](N)C4CCCCC4)cc4c3c2C=NNC4=O)cn1`
a: > 30 µM (inactive)

q: Enter measured Kd, system Cyclin-dependent kinase 10 (Homo sapiens), for the molecule shown: S=C(NCc1ccc2c(c1)OCO2)N1CCN(c2ncnc3c2oc2ccccc23)CC1 [AMUVATINIB]; also: in the data inactive means no Kd found up to 30 µM
a: > 30 µM (inactive)

q: Send back Cyclin-dependent kinase 10 (Homo sapiens) Kd of CN(c1ncccc1CNc1nc(Nc2ccc3c(c2)CC(=O)N3)ncc1C(F)(F)F)S(C)(=O)=O [PF-00562271] only.
a: > 30 µM (inactive)

---

Biological target: Cyclin-dependent kinase 6 (Homo sapiens, UniProt Q00534); also: in the data inactive means no Kd found up to 30 µM
Sequence (Q00534 whole entry): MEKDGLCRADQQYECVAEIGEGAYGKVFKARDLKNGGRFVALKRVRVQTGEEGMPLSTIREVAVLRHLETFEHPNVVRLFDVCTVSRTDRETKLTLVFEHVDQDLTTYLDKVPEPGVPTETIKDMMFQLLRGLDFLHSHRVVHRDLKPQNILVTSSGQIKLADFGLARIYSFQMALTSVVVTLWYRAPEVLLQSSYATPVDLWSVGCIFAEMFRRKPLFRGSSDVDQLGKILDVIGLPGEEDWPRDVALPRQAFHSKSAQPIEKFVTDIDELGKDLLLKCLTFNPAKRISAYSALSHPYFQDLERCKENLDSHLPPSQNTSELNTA
Activity calls are given as the source filed them.
recorded.endpoint: Kd

Some solved cases for reference:
{"compound": "CC(C)CC(=O)Nc1[nH]nc2c1CN(C(=O)C1CCN(C)CC1)C2(C)C", "Kd": "> 30 µM (inactive)"}
{"compound": "NC[C@@](O)(c1ccc(Cl)cc1)c1ccc(-c2cn[nH]c2)cc1", "Kd": "> 30 µM (inactive)"}
{"compound": "CN(C)C/C=C/C(=O)Nc1cc2c(Nc3ccc(F)c(Cl)c3)ncnc2cc1O[C@H]1CCOC1", "Kd": "> 30 µM (inactive)"}

q: Please report Kd with Cyclin-dependent kinase 6 (Homo sapiens, UniProt Q00534) for item `C=CC(=O)Nc1cccc(Nc2nc(Nc3ccc(N4CCN(C(C)=O)CC4)cc3OC)ncc2C(F)(F)F)c1` .
a: > 30 µM (inactive)

q: Tell me Kd of COc1ccc(-c2ccc3ncc4c(c3c2)n(-c2ccc(N3CCNCC3)c(C(F)(F)F)c2)c(=O)n4C)cn1 [BGT-226 FREE BASE] when tested on Cyclin-dependent kinase 6 (Homo sapiens, UniProt Q00534). Also: in the data inactive means no Kd found up to 30 µM.
a: > 30 µM (inactive)

q: Look up Cyclin-dependent kinase 6 (Homo sapiens, UniProt Q00534) data: Kd of `N#CCNC(=O)c1ccc(-c2ccnc(Nc3ccc(N4CCOCC4)cc3)n2)cc1` , then report it.
a: 3.36 µM

q: Please report Kd with Cyclin-dependent kinase 6 (Homo sapiens, UniProt Q00534) for item `CC(C)(O)CC(=O)NCCn1ccc2ncnc(Nc3ccc(Oc4cccc(C(F)(F)F)c4)c(Cl)c3)c21` .
a: > 30 µM (inactive)

q: Please tell me the measured Kd for `FC(F)(F)c1ccc(CNc2ccc(Cc3c[nH]c4ncc(Cl)cc34)cn2)cn1` ; system: Cyclin-dependent kinase 6 (Homo sapiens, UniProt Q00534). Also: in the data inactive means no Kd found up to 30 µM.
a: > 30 µM (inactive)

q: Provide Kd, recorded with Cyclin-dependent kinase 6 (Homo sapiens, UniProt Q00534), of `COc1cc(Nc2ncc(F)c(Nc3ccc4c(n3)N(COP(=O)(O)O)C(=O)C(C)(C)O4)n2)cc(OC)c1OC`
a: > 30 µM (inactive)

---

Activity calls are given as the source filed them.
Reported Kd values, Tyrosine-protein kinase ABL2 (Homo sapiens).

These recorded examples may help you get a feel for the data.
{"molecule": "Cc1c(Cn2c(C)nc3c(C(=O)O)cc(N4CCOCC4)cc32)cccc1C(F)(F)F [GSK-2636771]", "Kd": "> 30 µM (inactive)"}
{"molecule": "C[C@]1(O)C[C@@H](c2nc(-c3ccc4ccc(-c5ccccc5)nc4c3)c3c(N)nccn32)C1 [LINSITINIB]", "Kd": "> 30 µM (inactive)"}

// switching to the query molecule
q: System Tyrosine-protein kinase ABL2 (Homo sapiens). Read-out Kd. Item CNC(=O)c1ccc(Nc2ncc(C(F)(F)F)c(NCc3nccnc3N(C)S(C)(=O)=O)n2)cc1 [DEFACTINIB] . Report value. Also: in the data inactive means no Kd found up to 30 µM.
a: > 30 µM (inactive)

---

Target: Mitogen-activated protein kinase kinase kinase kinase 5 (Homo sapiens); also: in the data inactive means no Kd found up to 30 µM
Sequence (Q9Y4K4 whole entry): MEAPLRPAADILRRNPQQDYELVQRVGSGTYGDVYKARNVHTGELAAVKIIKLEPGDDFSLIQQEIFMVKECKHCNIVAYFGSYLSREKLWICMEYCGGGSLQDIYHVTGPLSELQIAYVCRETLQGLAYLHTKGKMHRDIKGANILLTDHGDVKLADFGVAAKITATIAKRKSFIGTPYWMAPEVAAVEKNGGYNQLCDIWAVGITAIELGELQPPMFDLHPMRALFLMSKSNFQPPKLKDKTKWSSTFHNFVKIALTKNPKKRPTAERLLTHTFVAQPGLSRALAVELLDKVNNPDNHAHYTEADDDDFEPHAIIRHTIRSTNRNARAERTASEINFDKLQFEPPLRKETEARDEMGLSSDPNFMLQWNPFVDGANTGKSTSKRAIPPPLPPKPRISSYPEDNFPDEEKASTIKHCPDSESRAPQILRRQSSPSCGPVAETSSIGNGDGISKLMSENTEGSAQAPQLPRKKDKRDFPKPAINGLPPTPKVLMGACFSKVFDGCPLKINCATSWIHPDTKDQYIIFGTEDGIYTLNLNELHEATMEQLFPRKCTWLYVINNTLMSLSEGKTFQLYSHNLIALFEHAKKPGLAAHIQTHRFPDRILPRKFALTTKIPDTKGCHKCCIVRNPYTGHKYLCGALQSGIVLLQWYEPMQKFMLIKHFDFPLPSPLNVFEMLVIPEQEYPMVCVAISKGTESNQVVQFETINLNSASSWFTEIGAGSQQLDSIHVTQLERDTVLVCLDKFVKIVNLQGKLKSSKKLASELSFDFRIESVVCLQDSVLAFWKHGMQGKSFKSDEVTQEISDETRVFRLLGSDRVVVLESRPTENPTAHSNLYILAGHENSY
Active and inactive are the calls of the source.
Outcome field: choose from active, inactive

See these solved cases before continuing.
{"compound": "COc1cc2nccc(Oc3ccc(NC(=O)C4(C(=O)Nc5ccc(F)cc5)CC4)cc3)c2cc1OC [CABOZANTINIB]", "assigned.category": "inactive"}
{"compound": "c1cc(OCCN2CCCCC2)cc(-c2n[nH]c3ccc(-c4nc[nH]n4)cc23)c1", "assigned.category": "inactive"}
{"compound": "COc1cc2ncnc3c2cc1OCCCCCN(C)Cc1ccc(Br)cc1N3", "assigned.category": "inactive"}
{"compound": "CC1(COc2ccc3c(c2)ncn3-c2ccc3cccc(N4CCC(N)CC4)c3n2)COC1", "assigned.category": "active"}
{"compound": "C=CCN(/C=C1/C(=O)O[C@H](COC)[C@@]2(C)C1=C(O)C(=O)C1=C2[C@H](OC(C)=O)C[C@]2(C)C(=O)CC[C@@H]12)CC=C", "assigned.category": "inactive"}
{"compound": "Cn1c(=O)c(F)c(Nc2ccc(I)cc2F)c2c(=O)n(C[C@@H](O)CO)cnc21", "assigned.category": "inactive"}
{"compound": "COCCN1CCN(Cc2ccc(-c3n[nH]c4c3C(=O)c3c(NC(=O)NN5CCOCC5)cccc3-4)cc2)CC1", "assigned.category": "inactive"}
{"compound": "CNC(=O)c1ccc(Nc2ncc(C(F)(F)F)c(NCc3nccnc3N(C)S(C)(=O)=O)n2)cc1", "assigned.category": "inactive"}
{"compound": "O[C@H]1CC[C@H](Nc2ncc3nc(Nc4c(F)cc(F)cc4F)n([C@H]4CCOC4)c3n2)CC1", "assigned.category": "inactive"}
{"compound": "COc1ccc2c(OCc3nnc4ccc(-c5ccccc5)nn34)ccnc2c1", "assigned.category": "inactive"}

q: // outcome(item) with item = COc1ccc(-c2ccc3ncc4c(c3c2)n(-c2ccc(N3CCNCC3)c(C(F)(F)F)c2)c(=O)n4C)cn1 [BGT-226 FREE BASE]
a: inactive

q: Call for entry `CNC(=O)c1cccc(-c2ccc3c(N4CCOC[C@@H]4C)nc(N4CCOC[C@@H]4C)nc3n2)c1` :
a: inactive

q: Which outcome was assigned to O=S(=O)(c1cccc2c(O)nccc12)N1CCCNCC1 [HYDROXYFASUDIL] in this test?
a: inactive

q: Please share the test call associated with `Cc1ccc(C(=O)Nc2ccc(Oc3cc4cnn(C)c4cc3-c3cn[nH]c3)c(F)c2)c(=O)n1-c1ccc(F)cc1` .
a: inactive

q: Recorded test call requested for COc1cc2ncnc(Nc3ccc(F)c(Cl)c3)c2cc1NC(=O)/C=C/CN1CCCCC1 [DACOMITINIB ANHYDROUS]
a: inactive

q: // outcome(item) with item = `COc1cccc2cc(-c3nc([C@H]4CC[C@H](C(=O)O)CC4)n4ncnc(N)c34)[nH]c12`
a: inactive

q: For `CCN(CCCOc1ccc2c(Nc3cc(CC(=O)Nc4cccc(F)c4)n[nH]3)ncnc2c1)CCOP(=O)(O)O` , what call appears in the results of this test?
a: active

q: What did the test return for `C#Cc1cccc(Nc2ncnc3cc4c(cc23)OCCOCCOCCO4)c1` ?
a: inactive

q: Tell me the recorded outcome of this test for `CNC(=O)c1cc(COc2nnc(Nc3ccc(Cl)cc3)c3ccoc23)ccn1` .
a: inactive

q: Tell me the recorded outcome of this test for `Cc1cc(-c2cc(OC(=O)c3ccccc3)ccc2Cl)cc2nnc(Nc3ccc(OCCN4CCCC4)cc3)nc12` .
a: inactive

q: Hello, I am checking results. What call was entered for `CCOc1ccn(-c2ccc(F)cc2)c(=O)c1C(=O)Nc1ccc(Oc2ccnc(N)c2Cl)c(F)c1` ?
a: inactive

q: How was `O=C(O)c1ccc2c(c1)nc(Nc1cccc(Cl)c1)c1ccncc12` classified in this test?
a: inactive

q: Assay result, entry `CCN1CCN(Cc2ccc(Nc3ncc(F)c(-c4cc(F)c5nc(C)n(C(C)C)c5c4)n3)nc2)CC1` — outcome?
a: inactive

q: # outcome recorded in this test, key = `O=C(Nc1ccc(OC(F)(F)F)cc1)c1sccc1NCc1ccnc2ccccc12`
a: inactive

q: Record request — test call for `C=CC(=O)Nc1cccc(Nc2nc(Nc3ccc(N4CCN(C(C)=O)CC4)cc3OC)ncc2C(F)(F)F)c1`
a: inactive

q: Record lookup: outcome of this test for `C=CC(=O)Nc1cc(Nc2nccc(-c3cn(C)c4ccccc34)n2)c(OC)cc1N(C)CCN(C)C` ?
a: inactive

q: Recorded test call requested for `Cc1c(Cn2c(C)nc3c(C(=O)O)cc(N4CCOCC4)cc32)cccc1C(F)(F)F`
a: inactive

Measured values drawn from ChEMBL document CHEMBL3991601 for this set.
